src = PubChem BioAssay (NCI)

Form field: growth (one value per entry).
# Test system: HT29 colon
# Assay name: NCI-60 one-dose screen, 48 h (100 = growth as untreated, 0 = no growth, -100 = all killed)
# Experimental setup: 10 µM unless noted
This is part of a sample that, as a whole, favours compounds with a hit. Of some 83,000 tested, about 20% had one in any assay.
Please respond with the number in % and leave the unit unwritten.

COc1ccc(-c2nsc3c2NC(=O)CC3c2ccc3c(c2)OCO3)cc1 (stereo not given); 3.39
CCCCCCCCCCCCCC(=S)NCCCC[C@H](NC(=O)OCc1ccccc1)C(=O)Nc1ccccc1; 45.1
Cc1c(-c2ccc(-c3ccccc3F)cc2)nc2ccc(F)cc2c1C(=O)O; 28.3
COC(=O)C(C)NC1=C(Cl)C(=O)C(NC(C)C(=O)OC)=C(Cl)C1=O (stereo not given); 98.2

Below: the item to evaluate.
Provide one value: measured growth of O=C1OCC2=C1C(c1cccc(Br)c1)c1cc3c(cc1N2CCO)OCCO3 (stereo not given)
2.11
